System: Fibroblast
experimental protocol: Multiplex assay against human fibroblast
Assay type: toxicity, cell-based
conditions used: 48 h, 1 µM, compound concentration 1 uM, replicate 2
Outcome: YES for Population Healthy Nuclei (%) of at least 70%; NO for anything lower.

{"molecule": "Cl.N#Cc1ccc2[nH]cc(CCCCN3CCN(c4ccc5oc(C(N)=O)cc5c4)CC3)c2c1 [VILAZODONE HYDROCHLORIDE]", "class label": "NO"}
{"molecule": "CC(C)(O)CNc1ncc(-c2ccnc(Nc3ccnc(Cl)c3)n2)c(CC2CC2)n1", "class label": "YES"}
{"molecule": "CN1CCCC(n2nc(Cc3ccc(Cl)cc3)c3ccccc3c2=O)CC1.Cl (stereo unspecified) [AZELASTINE HYDROCHLORIDE]", "class label": "NO"}
{"molecule": "CC(C)NCC(O)COc1ccc(CCOCC2CC2)cc1.Cl (stereo unspecified) [BETAXOLOL HYDROCHLORIDE]", "class label": "NO"}
{"molecule": "Cc1[nH]c(/C=C2\\C(=O)Nc3ccc(S(=O)(=O)N(C)c4cccc(Cl)c4)cc32)c(C)c1C(=O)N1CCN(C)CC1", "class label": "YES"}
{"molecule": "CN(C)CC#Cc1ccc(OCCCc2sc(N3CCc4cccc(C(=O)Nc5nc6ccccc6s5)c4C3)nc2C(=O)O)c(F)c1", "class label": "NO"}
{"molecule": "OC1(c2ccc(Cl)cc2)CCN(Cc2c[nH]c3ccccc23)CC1", "class label": "NO"}
{"molecule": "C[C@@H](NCCCc1cccc(C(F)(F)F)c1)c1cccc2ccccc12.Cl [CINACALCET HYDROCHLORIDE]", "class label": "NO"}
{"molecule": "COc1cc(-n2cnc3cc(-c4ccc(Cl)cc4)sc3c2=O)ccc1OCCN1CCCC1", "class label": "NO"}
{"molecule": "Cc1nc(-c2ccc(-c3ccc(C(=O)N4CCc5cc6c(cc54)C4(CCN(C)CC4)CO6)cc3)c(C)c2)no1", "class label": "NO"}
{"molecule": "Cn1cc(-c2[nH]c3cc(NC(=O)[C@H](N)C4CCCCC4)cc4c3c2C=NNC4=O)cn1", "class label": "NO"}
{"molecule": "COc1ncc(-c2ccc3nccc(-c4ccnnc4)c3c2)cc1NS(=O)(=O)c1ccc(F)cc1F", "class label": "NO"}

---

The compounds listed here are annotated with their Growth Rate.
Test system: Fibroblast
experimental protocol: Incucyte cell viability with human fibroblast; also: filed as whole numbers so only -1 and 0 and 1 occur
Format: toxicity, cell-based
conditions used: 24 h, 10 µM, compound concentration 10 uM, replicate number 2, timepoint 24 hours

{"compound": "COc1cccc([C@@H](C)NCCCc2ccccc2Cl)c1.Cl [TECALCET HYDROCHLORIDE]", "Growth Rate": 0}
{"compound": "CCOCCn1cc(C(=O)Nc2ccc(-n3nc(-c4cccnc4)cc3C(F)(F)F)cn2)ccc1=O", "Growth Rate": 1}
{"compound": "COc1ccc(CNC(=O)c2cc(-c3cncc(Cl)c3)cnc2-c2ccccn2)nc1OC", "Growth Rate": 1}
{"compound": "CN(C)C(=O)N[C@H]1CC[C@H](CCN2CCN(c3cccc(Cl)c3Cl)CC2)CC1.Cl [CARIPRAZINE HYDROCHLORIDE]", "Growth Rate": 0}

---

Tested on: Fibroblast
experimental protocol: Multiplex assay against human fibroblast
Type: toxicity, cell-based
conditions used: 12 h, 10 µM, compound concentration 10 uM, replicate 1
Each entry below carries its reported Population Membrane Permeable-Phenotype (%).
measure name: Population Membrane Permeable-Phenotype (%)

{"molecule": "C=CC(=O)Nc1ccc2ncnc(Nc3ccc(OCc4cccc(F)c4)c(Cl)c3)c2c1.Cc1ccc(S(=O)(=O)O)cc1", "value reported": 15}
{"molecule": "CN1CCCC(n2nc(Cc3ccc(Cl)cc3)c3ccccc3c2=O)CC1.Cl (stereo not drawn) [AZELASTINE HYDROCHLORIDE]", "value reported": 13}
{"molecule": "COc1cccc([C@@H](C)NCCCc2ccccc2Cl)c1.Cl [TECALCET HYDROCHLORIDE]", "value reported": 11}
{"molecule": "Cn1cc(-c2[nH]c3cc(NC(=O)[C@H](N)C4CCCCC4)cc4c3c2C=NNC4=O)cn1", "value reported": 20}
{"molecule": "O=C1NCN(c2ccccc2)C12CCN(CCCOc1ccc(F)cc1)CC2 [SPIRAMIDE]", "value reported": 6}
{"molecule": "CN(C)CC#Cc1ccc(OCCCc2sc(N3CCc4cccc(C(=O)Nc5nc6ccccc6s5)c4C3)nc2C(=O)O)c(F)c1", "value reported": 42}
{"molecule": "OC1(c2ccc(Cl)cc2)CCN(Cc2c[nH]c3ccccc23)CC1", "value reported": 13}
{"molecule": "Cc1nc(-c2cn3c(n2)-c2ccc(-c4cnn(C(C)(C)C(N)=O)c4)cc2OCC3)n(C(C)C)n1", "value reported": 7}

---

Test system: Fibroblast
experimental protocol: Multiplex assay against human fibroblast
Type: toxicity, cell-based
conditions used: 12 h, 1 µM, compound concentration 1 uM, replicate 1

{"compound": "C=CC(=O)Nc1ccc2ncnc(Nc3ccc(OCc4cccc(F)c4)c(Cl)c3)c2c1.Cc1ccc(S(=O)(=O)O)cc1", "Population Normal (%)": 92}
{"compound": "CN1CCN(CCOc2cc(OC3CCOCC3)c3c(Nc4c(Cl)ccc5c4OCO5)ncnc3c2)CC1", "Population Normal (%)": 89}
{"compound": "CN1CCCC(n2nc(Cc3ccc(Cl)cc3)c3ccccc3c2=O)CC1.Cl (stereo not drawn) [AZELASTINE HYDROCHLORIDE]", "Population Normal (%)": 88}
{"compound": "OC1(c2ccc(Cl)cc2)CCN(Cc2c[nH]c3ccccc23)CC1", "Population Normal (%)": 88}
{"compound": "COc1ncc(-c2ccc3nccc(-c4ccnnc4)c3c2)cc1NS(=O)(=O)c1ccc(F)cc1F", "Population Normal (%)": 87}
{"compound": "COc1cc(-n2cnc3cc(-c4ccc(Cl)cc4)sc3c2=O)ccc1OCCN1CCCC1", "Population Normal (%)": 86}
{"compound": "CCN(CC)CCCCNc1ncc2cc(-c3cc(OC)cc(OC)c3)c(NC(=O)NC(C)(C)C)nc2n1", "Population Normal (%)": 29}
{"compound": "c1cn2cc(-c3ccc4cn[nH]c4c3)nc(Nc3ccc(N4CCOCC4)cc3)c2n1", "Population Normal (%)": 85}

---

Test system: HEK-293T
experimental protocol: Multiplex assay against HEK293T
Format: toxicity, cell-based
conditions used: human, 24 h, 10 µM, compound concentration 10 uM, replicate 2
measure name: Population Membrane Permeable-Phenotype (%)

{"compound": "Cc1c(-c2ccc(O)cc2)n(Cc2ccc(OCCN3CCCCCC3)cc2)c2ccc(O)cc12", "units": "%", "value reported": 33}
{"compound": "Cn1cc(-c2[nH]c3cc(NC(=O)[C@H](N)C4CCCCC4)cc4c3c2C=NNC4=O)cn1", "units": "%", "value reported": 0}
{"compound": "Cc1csc2c(N[C@@H](C)CN3CCN(S(=O)(=O)c4ccc(Cl)c(Cl)c4)CC3)ncnc12", "units": "%", "value reported": 0}
{"compound": "Cc1nc(Nc2n[nH]c3c2CN(C(=O)N[C@H](CN(C)C)c2ccccc2)C3(C)C)c2sccc2n1", "units": "%", "value reported": 8}
{"compound": "Cl.N#Cc1ccc2[nH]cc(CCCCN3CCN(c4ccc5oc(C(N)=O)cc5c4)CC3)c2c1 [VILAZODONE HYDROCHLORIDE]", "units": "%", "value reported": 11}
{"compound": "COc1cc2nccc(Oc3ccc(NC(=O)Nc4cc(C)on4)c(Cl)c3)c2cc1OC.O", "units": "%", "value reported": 2}
{"compound": "C=CC(=O)Nc1ccc2ncnc(Nc3ccc(OCc4cccc(F)c4)c(Cl)c3)c2c1.Cc1ccc(S(=O)(=O)O)cc1", "units": "%", "value reported": 2}
{"compound": "NC(=O)Nc1cc(-c2cccc(F)c2)sc1C(=O)N[C@H]1CCCNC1", "units": "%", "value reported": 10}
{"compound": "COc1cc(-n2cnc3cc(-c4ccc(Cl)cc4)sc3c2=O)ccc1OCCN1CCCC1", "units": "%", "value reported": 21}
{"compound": "CN1CCN(CCOc2cc(OC3CCOCC3)c3c(Nc4c(Cl)ccc5c4OCO5)ncnc3c2)CC1", "units": "%", "value reported": 6}

---

System: HEK-293T
experimental protocol: Multiplex assay against HEK293T
Assay type: toxicity, cell-based
conditions used: human, 24 h, 10 µM, compound concentration 10 uM, replicate 2

{"molecule": "Cc1c(-c2ccc(O)cc2)n(Cc2ccc(OCCN3CCCCCC3)cc2)c2ccc(O)cc12 [BAZEDOXIFENE]", "units": "%", "Population Pyknosed Nuclei (%)": 84}
{"molecule": "CN1CCC[C@@H]1CCO[C@](C)(c1ccccc1)c1ccc(Cl)cc1.O=C(O)/C=C/C(=O)O [CLEMASTINE FUMARATE]", "units": "%", "Population Pyknosed Nuclei (%)": 74}
{"molecule": "CN(C)CC#Cc1ccc(OCCCc2sc(N3CCc4cccc(C(=O)Nc5nc6ccccc6s5)c4C3)nc2C(=O)O)c(F)c1 [A-1155463]", "units": "%", "Population Pyknosed Nuclei (%)": 28}
{"molecule": "C=CC(=O)Nc1ccc2ncnc(Nc3ccc(OCc4cccc(F)c4)c(Cl)c3)c2c1.Cc1ccc(S(=O)(=O)O)cc1", "units": "%", "Population Pyknosed Nuclei (%)": 52}
{"molecule": "Cc1cc(C)cc(-c2cnc3cc(Cl)c(-c4cccc(O)c4)cc3c2OCCCN)c1", "units": "%", "Population Pyknosed Nuclei (%)": 83}
{"molecule": "Cc1csc2c(N[C@@H](C)CN3CCN(S(=O)(=O)c4ccc(Cl)c(Cl)c4)CC3)ncnc12", "units": "%", "Population Pyknosed Nuclei (%)": 86}
{"molecule": "CN1CCCC(n2nc(Cc3ccc(Cl)cc3)c3ccccc3c2=O)CC1.Cl (configuration not stated) [AZELASTINE HYDROCHLORIDE]", "units": "%", "Population Pyknosed Nuclei (%)": 58}
{"molecule": "Cn1cc(-c2[nH]c3cc(NC(=O)[C@H](N)C4CCCCC4)cc4c3c2C=NNC4=O)cn1", "units": "%", "Population Pyknosed Nuclei (%)": 86}
{"molecule": "Cc1nc(Nc2n[nH]c3c2CN(C(=O)N[C@H](CN(C)C)c2ccccc2)C3(C)C)c2sccc2n1 [PF-03758309]", "units": "%", "Population Pyknosed Nuclei (%)": 14}
{"molecule": "CC(C)(O)CNc1ncc(-c2ccnc(Nc3ccnc(Cl)c3)n2)c(CC2CC2)n1", "units": "%", "Population Pyknosed Nuclei (%)": 94}
{"molecule": "O=C1NCN(c2ccccc2)C12CCN(CCCOc1ccc(F)cc1)CC2 [SPIRAMIDE]", "units": "%", "Population Pyknosed Nuclei (%)": 42}
{"molecule": "CN(C)C(=O)N[C@H]1CC[C@H](CCN2CCN(c3cccc(Cl)c3Cl)CC2)CC1.Cl [CARIPRAZINE HYDROCHLORIDE]", "units": "%", "Population Pyknosed Nuclei (%)": 58}
{"molecule": "OC1(c2ccc(Cl)cc2)CCN(Cc2c[nH]c3ccccc23)CC1", "units": "%", "Population Pyknosed Nuclei (%)": 85}
{"molecule": "C[C@@H](NCCCc1cccc(C(F)(F)F)c1)c1cccc2ccccc12.Cl [CINACALCET HYDROCHLORIDE]", "units": "%", "Population Pyknosed Nuclei (%)": 76}
{"molecule": "Cc1nc(-c2cn3c(n2)-c2ccc(-c4cnn(C(C)(C)C(N)=O)c4)cc2OCC3)n(C(C)C)n1 [TASELISIB]", "units": "%", "Population Pyknosed Nuclei (%)": 1}
{"molecule": "CCN(CC)CCCCNc1ncc2cc(-c3cc(OC)cc(OC)c3)c(NC(=O)NC(C)(C)C)nc2n1 [PD-173074]", "units": "%", "Population Pyknosed Nuclei (%)": 2}
{"molecule": "COc1cc2nccc(Oc3ccc(NC(=O)Nc4cc(C)on4)c(Cl)c3)c2cc1OC.O", "units": "%", "Population Pyknosed Nuclei (%)": 47}
